assay: Stability of DA-7010 in rat plasma under various storage conditions; assay type: in vitro ADME; conditions: prepared plasma samples in LC vials, post-preparative (prepared samples 4 °C 24 h), nominal 30 ng/mL, n = 3, mean ± SD
quantity.name: recovery at 24 h, 30 ng/mL (%)
Give bare numbers, in %.

Inquiry: // query recovery at 24 h, 30 ng/mL value for entry C[C@@H]1COB2O[C@H](CN)c3cccc(c32)O1 [DA-7010]
Reply text: 95.5

* * *

test: Stability of DA-7010 in mouse plasma under various storage conditions; type: in vitro ADME; conditions: prepared plasma samples in LC vials, post-preparative (prepared samples 4 °C 24 h), nominal 400 ng/mL, n = 3, mean ± SD
quantity.name: recovery at 24 h, 400 ng/mL (%)
Answers are plain numbers, in %.

Inquiry: Field request: recovery at 24 h, 400 ng/mL | item: C[C@@H]1COB2O[C@H](CN)c3cccc(c32)O1 [DA-7010]
Reply text: 92.7

* * *

test: Pharmacokinetic study after single oral administration to mice; format: in vivo; conditions: male, ICR, mouse, plasma; mice, single oral dose 3 mg/kg, from mean concentration–time profile
quantity.name: Tmax (min)
Answers are plain numbers, in min.

Inquiry: Consider the molecule `C[C@@H]1COB2O[C@H](CN)c3cccc(c32)O1` and give its measured Tmax.
Reply text: 15

* * *

experiment: Stability of DA-7010 in mouse plasma under various storage conditions; type: in vitro ADME; settings: prepared plasma samples in LC vials, post-preparative (prepared samples 4 °C 24 h), nominal 30 ng/mL, n = 3, mean ± SD
quantity.name: recovery at 24 h, 30 ng/mL
Could you kindly put the unit after your number?

Inquiry: # query: recovery at 24 h, 30 ng/mL of entry `C[C@@H]1COB2O[C@H](CN)c3cccc(c32)O1`
Reply text: 106%

* * *

assay: Stability of DA-7010 in dog plasma under various storage conditions; type: in vitro ADME; settings: prepared plasma samples in LC vials, post-preparative (prepared samples 4 °C 24 h), nominal 400 ng/mL, n = 3, mean ± SD
quantity.name: recovery at 24 h, 400 ng/mL (%)
Give bare numbers, in %.

Inquiry: Sample `C[C@@H]1COB2O[C@H](CN)c3cccc(c32)O1` — what was its recovery at 24 h, 400 ng/mL?
Reply text: 108

* * *

test: Pharmacokinetic study after single oral administration to rats; format: in vivo; conditions: male, Sprague-Dawley, plasma; rat, representative sample 4 h after oral 3 mg/kg; read-out: Plasma concentration of DA-7010
quantity.name: concentration at 4 h
Give me the value, and tack the unit on after it.

Inquiry: Query: concentration at 4 h; subject: C[C@@H]1COB2O[C@H](CN)c3cccc(c32)O1 [DA-7010]
Reply text: 0.648 µg/mL

* * *

assay: Pharmacokinetic study after single oral administration to mice; assay type: in vivo; conditions: male, ICR, mouse, plasma; mice, single oral dose 3 mg/kg, from mean concentration–time profile; read-out: Terminal half-life
quantity.name: half-life (h)
Give bare numbers, in h.

Inquiry: Sample `C[C@@H]1COB2O[C@H](CN)c3cccc(c32)O1` — what was its half-life?
Reply text: 2.08

* * *

assay: Stability of DA-7010 in mouse plasma under various storage conditions; assay type: in vitro ADME; details: short term (room temperature 8 h), nominal 30 ng/mL, n = 3, mean ± SD
quantity.name: recovery at 8 h, 30 ng/mL (%)
Answers are plain numbers, in %.

Inquiry: So what's the measured recovery at 8 h, 30 ng/mL for this one? C[C@@H]1COB2O[C@H](CN)c3cccc(c32)O1 [DA-7010]
Reply text: 109
